Entries and their measured SC1.5 (concentration of activator that produced a 50% increase in the activity of GK) follow.
Target: Recombinant human liver GK1 (GST-GK) (Homo sapiens, UniProt P35557)
Construct: made in house; host or cells: E. coli
Sequence (P35557 1-466 isoform P35557-2): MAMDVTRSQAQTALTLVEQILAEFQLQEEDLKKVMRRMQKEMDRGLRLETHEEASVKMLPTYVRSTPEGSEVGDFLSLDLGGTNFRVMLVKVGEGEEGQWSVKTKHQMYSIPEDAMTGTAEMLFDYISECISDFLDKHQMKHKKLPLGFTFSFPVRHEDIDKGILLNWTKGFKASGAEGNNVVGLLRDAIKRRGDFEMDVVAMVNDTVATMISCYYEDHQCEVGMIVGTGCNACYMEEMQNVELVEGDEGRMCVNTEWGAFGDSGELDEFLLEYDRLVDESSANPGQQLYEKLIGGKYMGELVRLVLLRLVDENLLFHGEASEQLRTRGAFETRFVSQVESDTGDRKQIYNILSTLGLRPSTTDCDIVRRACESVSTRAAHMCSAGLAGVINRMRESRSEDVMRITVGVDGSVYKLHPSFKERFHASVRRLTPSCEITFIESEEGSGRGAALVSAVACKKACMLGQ
Test: In vitro glucokinase activity (G6PDH-coupled NADH assay)
Assay type: biochemical
Conditions: 30° C., 5 mM D-glucose, 10% DMSO
quantity: SC1.5 (concentration of activator that produced a 50% increase in the activity of GK) (µM)

compound: CC(C)C[C@@H](C(=O)Nc1ccn(C[C@@H](O)CO)n1)N1CC(Oc2cccc(Br)c2F)=CC1=O [Example 129]
study-target: Recombinant human liver GK1 (GST-GK) (Homo sapiens, UniProt P35557)
modifier: =
experimental-value: 0.163
--
compound: COc1cccc(OC2=CC(=O)N([C@@H](CC(C)C)C(=O)Nc3ccn(CC(C)(C)O)n3)C2)c1 [Example 165]
study-target: Recombinant human liver GK1 (GST-GK) (Homo sapiens, UniProt P35557)
modifier: =
experimental-value: 0.243
--
compound: CC1(C)OC[C@@H](Cn2ccc(NC(=O)[C@H](Cc3ccc(F)cc3)N3CC(Oc4ccccc4Cl)=CC3=O)n2)O1 [Example 186]
study-target: Recombinant human liver GK1 (GST-GK) (Homo sapiens, UniProt P35557)
modifier: =
experimental-value: 1.538
--
compound: COC(=O)c1ccc(NC(=O)[C@H](CC2CCCCC2)N2CC(Oc3c(F)cccc3F)=CC2=O)nc1 [Example 39]
study-target: Recombinant human liver GK1 (GST-GK) (Homo sapiens, UniProt P35557)
modifier: =
experimental-value: 0.025
--
compound: CCOc1cccc(OC2=CC(=O)N([C@@H](C[C@H](C)OCC)C(=O)Nc3ccn(CC(C)(C)O)n3)C2)c1F [Example 259]
study-target: Recombinant human liver GK1 (GST-GK) (Homo sapiens, UniProt P35557)
modifier: =
experimental-value: 0.984
--
compound: Cl.Cn1ccc(NC(=O)[C@H](CC2CCCCC2)N2CC(Oc3c(F)ccc(Cl)c3F)=CC2=O)n1 [Example 75]
study-target: Recombinant human liver GK1 (GST-GK) (Homo sapiens, UniProt P35557)
modifier: =
experimental-value: 0.037
--
compound: CSc1ccccc1OC1=CC(=O)N([C@@H](CC2CCCCC2)C(=O)Nc2ccn(CC(C)(C)O)n2)C1 [Example 196]
study-target: Recombinant human liver GK1 (GST-GK) (Homo sapiens, UniProt P35557)
modifier: =
experimental-value: 0.007
--
compound: O=C(Nc1ccn(C[C@@H](O)CO)n1)C(CC1C[C@@H](F)[C@@H](F)C1)N1CC(Oc2ccccc2Cl)=CC1=O (stereo partly drawn) [Example 263]
study-target: Recombinant human liver GK1 (GST-GK) (Homo sapiens, UniProt P35557)
modifier: =
experimental-value: 0.09
--
compound: CC(C)C[C@@H](C(=O)Nc1ccn(CC(C)(C)O)n1)N1CC(Oc2cccc(CC(C)(C)O)c2)=CC1=O [Example 236]
study-target: Recombinant human liver GK1 (GST-GK) (Homo sapiens, UniProt P35557)
modifier: =
experimental-value: 0.823
--
compound: COc1ccccc1OC1=CC(=O)N(C(CC2CCOCC2)C(=O)Nc2ccn(CC(C)(C)O)n2)C1 (stereo not drawn) [Example 34]
study-target: Recombinant human liver GK1 (GST-GK) (Homo sapiens, UniProt P35557)
modifier: =
experimental-value: 0.217
--
compound: COCc1nsc(NC(=O)[C@H](CC(C)C)N2CC(Oc3ccccc3Cl)=CC2=O)n1 [Example 112]
study-target: Recombinant human liver GK1 (GST-GK) (Homo sapiens, UniProt P35557)
modifier: =
experimental-value: 2.26
--
compound: Cc1cccc(OC2=CC(=O)N([C@@H](CC(C)C)C(=O)Nc3ccn(C[C@@H](O)CO)n3)C2)c1F [Example 131]
study-target: Recombinant human liver GK1 (GST-GK) (Homo sapiens, UniProt P35557)
modifier: =
experimental-value: 0.117
--
compound: COc1ccc(F)c(OC2=CC(=O)N([C@@H](CC(C)C)C(=O)Nc3ccn(C[C@@H]4COC(C)(C)O4)n3)C2)c1F [Example 118]
study-target: Recombinant human liver GK1 (GST-GK) (Homo sapiens, UniProt P35557)
modifier: =
experimental-value: 0.256
--
compound: COC1=CC(=O)N([C@@H](CC2CCCC2)C(=O)Nc2nc3ccccc3s2)C1 [Example 3]
study-target: Recombinant human liver GK1 (GST-GK) (Homo sapiens, UniProt P35557)
modifier: >
experimental-value: 30
--
compound: COc1ccccc1OC1=CC(=O)N([C@@H](CC2CCCO2)C(=O)Nc2ccn(CC(C)(C)O)n2)C1 (stereo partly drawn) [Example 31]
study-target: Recombinant human liver GK1 (GST-GK) (Homo sapiens, UniProt P35557)
modifier: =
experimental-value: 0.348

---

Entries and their measured SC1.5 (concentration of activator that produced a 50% increase in the activity of GK) follow.
molecular target: Recombinant human liver GK1 (GST-GK) (Homo sapiens); construct: made in house; host or cells: E. coli; experiment: In vitro glucokinase activity (G6PDH-coupled NADH assay); type: biochemical; details: 30° C., 5 mM D-glucose, 10% DMSO
quantity: SC1.5 (concentration of activator that produced a 50% increase in the activity of GK) (µM)

molecule: O=C(Nc1ccn(C[C@@H](O)CO)n1)C(CCC(F)(F)F)N1CC(Oc2ccccc2Cl)=CC1=O (some centres unmarked) [Example 220]
study-target: Recombinant human liver GK1 (GST-GK) (Homo sapiens)
modifier: =
experimental-value: 1.8
//
molecule: CCOC(=O)Cn1ccc(NC(=O)[C@H](CC(C)C)N2CC(Oc3cccc(C4CC4)c3F)=CC2=O)n1 [Example 148]
study-target: Recombinant human liver GK1 (GST-GK) (Homo sapiens)
modifier: =
experimental-value: 0.21
//
molecule: O=C(Nc1ccn(C[C@@H](O)CO)n1)C(CC(C(F)(F)F)C(F)(F)F)N1CC(Oc2ccccc2Cl)=CC1=O (some centres unmarked) [Example 219]
study-target: Recombinant human liver GK1 (GST-GK) (Homo sapiens)
modifier: =
experimental-value: 4.287
//
molecule: CC(C)C[C@@H](C(=O)Nc1ccn(CC(C)(C)O)n1)N1CC(Oc2cccc(O)c2F)=CC1=O [Example 126]
study-target: Recombinant human liver GK1 (GST-GK) (Homo sapiens)
modifier: =
experimental-value: 0.182
//
molecule: Cc1ccccc1OC1=CC(=O)N([C@@H](CC(C)C)C(=O)Nc2ccn(CCO[Si](C)(C)C(C)(C)C)n2)C1 [Example 121]
study-target: Recombinant human liver GK1 (GST-GK) (Homo sapiens)
modifier: =
experimental-value: 0.746
//
molecule: CCOc1cccc(OC2=CC(=O)N([C@@H](CC(C)C)C(=O)Nc3cnc([C@H](O)CO)cn3)C2)c1F [Example 151]
study-target: Recombinant human liver GK1 (GST-GK) (Homo sapiens)
modifier: =
experimental-value: 0.063
//
molecule: CC(C)C[C@@H](C(=O)Nc1nc(C2CC2)ns1)N1CC(Oc2ccccc2Cl)=CC1=O [Example 105]
study-target: Recombinant human liver GK1 (GST-GK) (Homo sapiens)
modifier: >
experimental-value: 30
//
molecule: COc1cccc(OC2=CC(=O)N([C@@H](CC3CCCC3)C(=O)Nc3ccn(C[C@@H](O)CO)n3)C2)c1Cl [Example 55]
study-target: Recombinant human liver GK1 (GST-GK) (Homo sapiens)
modifier: =
experimental-value: 0.007
//
molecule: COc1cccc(OC2=CC(=O)N([C@@H](CC3CCOCC3)C(=O)Nc3ccn(CC(C)(C)O)n3)C2)c1Cl [Example 51]
study-target: Recombinant human liver GK1 (GST-GK) (Homo sapiens)
modifier: =
experimental-value: 0.03
//
molecule: O=C(Nc1ccn(C[C@@H](O)CO)n1)[C@H](CC1CCCCC1)N1CC(Oc2c(F)cccc2F)=CC1=O [Example 38]
study-target: Recombinant human liver GK1 (GST-GK) (Homo sapiens)
modifier: =
experimental-value: 0.027
//
molecule: CCOc1ccc(F)c(OC2=CC(=O)N([C@H](CC3CCOCC3)C(=O)Nc3ccn(CC(C)(C)O)n3)C2)c1F (single isomer, unassigned) [Example 258]
study-target: Recombinant human liver GK1 (GST-GK) (Homo sapiens)
modifier: =
experimental-value: 4.435
